Source listed as patent US8952024B2.

System: morningglory (Ipomoea spp.)
Procedure summary: Test A pre-/postemergence plant response
Format: in vivo
Test settings: Preemergence, 125 g ai/ha; 0 to 100 scale, 0 = no effect, 100 = complete control
Parameter: Plant response rating, Morningglory

Compound | Parameter | Value measured
O=C1CCCC(O)=C1C(=O)c1cnc(C2CC2)n(C2CCCCC2)c1=O | Plant response rating, Morningglory | 70
CCc1ccc(-n2c(-c3cccc(Br)c3)ncc(C(=O)C3=C(O)CCCC3=O)c2=O)cc1 | Plant response rating, Morningglory | 0
O=C1CCCC(O)=C1C(=O)c1cnc(-c2cc(F)cc(F)c2)n(CC2CCCCC2)c1=O | Plant response rating, Morningglory | 0
O=C1CCCC([O-])=C1C(=O)c1cnc(-c2ccccc2)n(-c2ccccc2)c1=O.[K+] | Plant response rating, Morningglory | 10
Cc1ccc(-n2c(-c3cccc(Cl)c3)ncc(C(=O)C3=C(O)CCCC3=O)c2=O)cc1 | Plant response rating, Morningglory | 40
Cc1cccc(C)c1-n1c(-c2ccccc2)ncc(C(=O)C2=C(O)CCCC2=O)c1=O | Plant response rating, Morningglory | 0
Cc1cccc(-n2c(-c3cccc(Cl)c3)ncc(C(=O)C3=C(O)CCCC3=O)c2=O)c1 | Plant response rating, Morningglory | 20
COc1cccc(-n2c(-c3ccccc3)ncc(C(=O)C3=C(O)CCCC3=O)c2=O)c1 | Plant response rating, Morningglory | 0
CCCn1c(-c2cc(Cl)cc(Cl)c2)ncc(C(=O)C2=C(O)CCCC2=O)c1=O | Plant response rating, Morningglory | 0
CCc1cccc(-n2c(-c3ccccc3)ncc(C(=O)C3=C(O)CCCC3=O)c2=O)c1 | Plant response rating, Morningglory | 0
CCn1c(-c2ccccc2)ncc(C(=O)C2=C(O)CCCC2=O)c1=O | Plant response rating, Morningglory | 30
COCCn1c(-c2cccs2)ncc(C(=O)C2=C(O)CCCC2=O)c1=O | Plant response rating, Morningglory | 80
CCn1c(-c2cccc(F)c2)ncc(C(=O)C2=C(O)C3CCC(C3)C2=O)c1=O (centres unmarked) | Plant response rating, Morningglory | 70
O=C1CCCC(O)=C1C(=O)c1cnc(-c2ccco2)n(C2CCCCC2)c1=O | Plant response rating, Morningglory | 70
O=C1CCCC(O)=C1C(=O)c1cnc(-c2ccsc2)n(CC2CCCO2)c1=O (centres unmarked) | Plant response rating, Morningglory | 70
O=C1CCCC(O)=C1C(=O)c1cnc(-c2ccc(Br)cc2)n(-c2ccccc2)c1=O | Plant response rating, Morningglory | 0
O=C1CCCC(O)=C1C(=O)c1cnc(-c2ccccc2)n(C2CCCCCC2)c1=O | Plant response rating, Morningglory | 10
CCCCc1ncc(C(=O)C2=C(O)CCCC2=O)c(=O)n1-c1ccccc1C | Plant response rating, Morningglory | 90
O=C1CCCC(O)=C1C(=O)c1cnc(C2CCCC2)n(-c2ccccc2)c1=O | Plant response rating, Morningglory | 0
O=C1CCCC(O)=C1C(=O)c1cnc(-c2ccsc2)n(C2CCOCC2)c1=O | Plant response rating, Morningglory | 20

----------
Reported Plant response rating, Wheat values for the following compounds.
Test system: wheat (Triticum aestivum)
Procedure summary: Test B pre-/postemergence plant response
Type: in vivo
Test settings: Postemergence, 250 g ai/ha; scale 0 to 100 (0 no effect, 100 complete control)

Smiles code | Target | Plant response rating, Wheat
CCCc1ncc(C(=O)C2=C(O)CCCC2=O)c(=O)n1-c1cccc(C)c1 | wheat (Triticum aestivum) | 40
O=C1CCCC(O)=C1C(=O)c1cnc(-c2cccs2)n(-c2ccccc2)c1=O | wheat (Triticum aestivum) | 0
CCCCCCn1c(-c2ccccc2)ncc(C(=O)C2=C(O)CCCC2=O)c1=O | wheat (Triticum aestivum) | 5
O=C1CCCC(O)=C1C(=O)c1cnc(-c2ccccc2)n(C2CC2)c1=O | wheat (Triticum aestivum) | 35
O=C1CCCC(O)=C1C(=O)c1cnc(C2CC2)n(-c2ccccc2)c1=O | wheat (Triticum aestivum) | 50

----------
Entries and their measured Plant response rating, Galium follow.
System: galium (catchweed bedstraw, Galium aparine)
Procedure summary: Test B pre-/postemergence plant response
Assay type: in vivo
Test settings: Preemergence, 62 g ai/ha; scale 0 to 100, 0 no effect, 100 complete control

Smiles code | Plant response rating, Galium
CCCCn1c(C2CC2)ncc(C(=O)C2=C(O)CCCC2=O)c1=O | 100
Cc1c(F)cccc1-n1c(-c2ccccc2)ncc(C(=O)C2=C(O)CCCC2=O)c1=O | 50
Cc1ccc(-n2c(-c3cccc(Cl)c3)ncc(C(=O)C3=C(O)CCCC3=O)c2=O)cc1 | 80
O=C1CCCC(O)=C1C(=O)c1cnc(-c2cccc(Cl)c2)n(-c2ccccc2)c1=O | 50

----------
System: goosegrass (Eleusine indica)
Procedure summary: Test B pre-/postemergence plant response
Assay type: in vivo
Test settings: Postemergence, 31 g ai/ha; 0 to 100 scale (0 no effect, 100 complete control)
Parameter: Plant response rating, Goosegrass

Molecule | Value measured
COCCCn1c(-c2cc(F)cc(F)c2)ncc(C(=O)C2=C(O)C3CCC(C3)C2=O)c1=O (stereo not shown) [Compound 244] | 85
O=C1CCCC(O)=C1C(=O)c1cnc(-c2ccsc2)n(C2CCOCC2)c1=O [Compound 186] | 85
CCCc1ncc(C(=O)C2=C(O)CCCC2=O)c(=O)n1-c1ccccc1 [Compound 217] | 80
CCn1c(-c2cccc(F)c2)ncc(C(=O)C2=C(O)C3CCC(C3)C2=O)c1=O (stereo not shown) [Compound 236] | 80
O=C1CCCC(O)=C1C(=O)c1cnc(-c2ccccc2)n(C2CC[S+]([O-])CC2)c1=O (mixture of isomers) [Compound 169] | 95
O=C1CCCC(O)=C1C(=O)c1cnc(-c2ccccc2)n(C2CCOCC2)c1=O [Compound 129] | 85
Cc1ccc(-n2c(-c3cc(F)cc(F)c3)ncc(C(=O)C3=C(O)CCCC3=O)c2=O)cc1 [Compound 162] | 60

----------
Parameter Plant response rating, Guineagrass: see the listing below.
Tested on: guineagrass (Panicum maximum)
Procedure summary: Test D pre-/postemergence plant response
Format: in vivo
Test settings: Postemergence; 62 g ai/ha; scale 0 to 100 (0 no effect, 100 complete control)

Compound | Target | Plant response rating, Guineagrass
CCCCn1c(-c2ccccc2)ncc(C(=O)C2=C(O)C3CCC(C3)C2=O)c1=O (centres unmarked) | guineagrass (Panicum maximum) | 65
O=C1CCCC(O)=C1C(=O)c1cnc(-c2cccnc2)n(-c2ccccc2)c1=O | guineagrass (Panicum maximum) | 50
Cc1ccc(Cl)cc1-n1c(-c2ccccc2)ncc(C(=O)C2=C(O)CCCC2=O)c1=O | guineagrass (Panicum maximum) | 75
Cc1ccc(F)c(-n2c(-c3ccccc3)ncc(C(=O)C3=C(O)CCCC3=O)c2=O)c1 | guineagrass (Panicum maximum) | 30
O=C1CCCC(O)=C1C(=O)c1cnc(-c2ccccc2)n(C2CCCCC2)c1=O | guineagrass (Panicum maximum) | 30

----------
Examples of compounds with documented Plant response rating, Soybean follow.
Tested on: soybean (Glycine max)
Procedure summary: Test B pre-/postemergence plant response
Type: in vivo
Test settings: Postemergence, 125 g ai/ha; scale 0 to 100 (0 no effect, 100 complete control)

Compound | Target | Plant response rating, Soybean
O=C1CCCC(O)=C1C(=O)c1cnc(-c2ccccc2)n(C2CCCCCC2)c1=O | soybean (Glycine max) | 98
O=C1CCCC(O)=C1C(=O)c1cnc(-c2ccsc2)n(C2CCCCC2)c1=O | soybean (Glycine max) | 100
CCCn1c(-c2cc(Cl)cc(Cl)c2)ncc(C(=O)C2=C(O)CCCC2=O)c1=O | soybean (Glycine max) | 95
O=C1CCCC(O)=C1C(=O)c1cnc(-c2ccsc2)n(CC2CCCO2)c1=O (centres unmarked) | soybean (Glycine max) | 98
O=C1CCCC(O)=C1C(=O)c1cnc(-c2ccsc2)n(C2CCOCC2)c1=O | soybean (Glycine max) | 100

----------
System: bermudagrass (Cynodon dactylon)
Procedure summary: Test B pre-/postemergence plant response
Format: in vivo
Test settings: 62 g ai/ha, postemergence; 0 is no effect, 100 is complete control; 13 to 15 days
Bermudagrass plant response rating (0 to 100 scale) values, listed per item
Parameter: Bermudagrass plant response rating (0 to 100 scale)

Smiles code | Value measured
O=C1CCCC(O)=C1C(=O)c1cnc(-c2ccccc2)n(C2CCCCC2)c1=O | 85
Cc1ccc(-n2c(-c3cc(F)cc(F)c3)ncc(C(=O)C3=C(O)CCCC3=O)c2=O)cc1 | 95
CCCc1ncc(C(=O)C2=C(O)CCCC2=O)c(=O)n1-c1cccc(C)c1 | 80
CCOCCn1c(-c2ccccc2)ncc(C(=O)C2=C(O)CCCC2=O)c1=O | 95

----------
Test system: wheat (Triticum aestivum)
Procedure summary: Test B pre-/postemergence plant response
Assay type: in vivo
Test settings: 250 g ai/ha, Preemergence, 0 to 100 scale
Parameter: Plant response rating, Wheat

Smiles code | Parameter | Value measured
Cc1ccc(-n2c(-c3cccc(Cl)c3)ncc(C(=O)C3=C(O)CCCC3=O)c2=O)cc1 | Plant response rating, Wheat | 0
Cc1cccc(-n2c(-c3ccccc3)ncc(C(=O)C3=C(O)CCCC3=O)c2=O)c1C | Plant response rating, Wheat | 5
Cc1cc(F)ccc1-n1c(-c2ccccc2)ncc(C(=O)C2=C(O)CCCC2=O)c1=O | Plant response rating, Wheat | 0
Cc1cccc(-n2c(-c3cccc(Cl)c3)ncc(C(=O)C3=C(O)CCCC3=O)c2=O)c1 | Plant response rating, Wheat | 0
